- ASSAY_NOTES: Solubility limits of LCA and UDCA in organic solvents
- Format: physicochemical
- CONDITION_SUMMARY: organic solvent, organic solvent or mixture, thermodynamic from solid, ethanol; read-out: solubility limit
ASSAY_READOUT: solubility (mg/mL)
Answer format: numeric, mg/mL implied, no suffix.

Briefly, solubility measured for C[C@H](CCC(=O)O)[C@H]1CC[C@H]2[C@@H]3[C@@H](O)C[C@@H]4C[C@H](O)CC[C@]4(C)[C@H]3CC[C@]12C [UDCA, ursodeoxycholic acid] : 54.5

---

- ASSAY_NOTES: Solubility limits of LCA and UDCA in organic solvents
- Format: physicochemical
- CONDITION_SUMMARY: organic solvent, organic solvent or mixture, thermodynamic from solid, i Pr2O; read-out: solubility limit
ASSAY_READOUT: solubility

Briefly, solubility measured for `C[C@H](CCC(=O)O)[C@H]1CC[C@H]2[C@@H]3[C@@H](O)C[C@@H]4C[C@H](O)CC[C@]4(C)[C@H]3CC[C@]12C` : < 500 µg/mL
